Hi there, I'd appreciate the recorded inhibition zone (IZ) for every entry that follows.
# Tested on: Staphylococcus aureus
# measurement-notes: Antibacterial activity against Staphylococcus aureus at 100 ppm by disk diffusion method
# Type: functional
# Parameters: unit not given here
Give bare numbers.

# annotated cases, reported inhibition zone (IZ) shown
{"columns": ["compound", "inhibition zone (IZ)"],
 "data": [
  ["[Se]=P1(CBr)CNc2cccc3cccc(c23)NC1", 9],
  ["CC(NCP1(=[Se])CNc2cccc3cccc(c23)NC1)c1ccccc1 (stereo not given)", 11],
  ["S=P1(CBr)CNc2cccc3cccc(c23)NC1", 13],
  ["CCC(C)OCP1(=[Se])CNc2cccc3cccc(c23)NC1 (stereo not given)", 14],
  ["CCC(C)OCP1(=S)CNc2cccc3cccc(c23)NC1 (stereo not given)", 13],
  ["CCC(CO)NCP1(=[Se])CNc2cccc3cccc(c23)NC1 (stereo not given)", 10],
  ["CC(NCP1(=S)CNc2cccc3cccc(c23)NC1)c1ccccc1 (stereo not given)", 12],
  ["CCC(CO)NCP1(=S)CNc2cccc3cccc(c23)NC1 (stereo not given)", 11]
]}

Please give inhibition zone (IZ), item by item, for the list that follows.
1. CC(Cc1ccccc1)OCP1(=[Se])CNc2cccc3cccc(c23)NC1 (stereo not given)
2. CC(Cc1ccccc1)OCP1(=S)CNc2cccc3cccc(c23)NC1 (stereo not given)

*A*
1: 12; 2: 10
